target: T1, Human PD-1 extracellular domain, hFc tag (human, UniProt Q15116 25-170); test: SPR Biacore 8K; PD-1-hFc captured on anti-human Fc chip, VHH injected; 1:1 fit
T1 construct: extracellular domain; also called hPro1.ECD.hFc; not shown: human Fc tag at C-terminus
T1 sequence (Q15116 25-170): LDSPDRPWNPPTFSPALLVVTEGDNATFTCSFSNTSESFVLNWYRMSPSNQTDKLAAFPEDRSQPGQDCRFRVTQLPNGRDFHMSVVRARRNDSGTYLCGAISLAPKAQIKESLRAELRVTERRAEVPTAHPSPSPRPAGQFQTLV
MEASURED ENDPOINT: kon (M⁻¹ s⁻¹)

BINDER	UNIT ABBREVIATION	kon
AP17R1-2H2-Z1 (VHH, also called the humanized AP17R1-2H2; not shown: his- and c-Myc-tag from vector pETbac) VHH: QVQLVESGGGVVQPGGSLRLSCAASDSIDSLVNMGWYRQAPGKQRELVALIANYITHYADFVKGRFTISRDNSKNTLYLQMNSLRAEDTAVYYCYARNIIVDYWGQGTLVTVSS	M⁻¹ s⁻¹	307000
AP17R1-2H2-Z1-R1-29B2 (VHH, not shown: his- and c-Myc-tag from vector pETbac) VHH: QVQLVESGGGVVQPGGSLRLSCAASDSIDSLVNMGWYRQAPGKQRELVALIANYITHYADFVKGRFTISRDNSKNTLYLQMNSLRAEDTAVYYCYARNIRVDYWGQGTLVTVSS	M⁻¹ s⁻¹	406000
AP17R1-2H2-Z1-R1-4B2 (VHH, not shown: his- and c-Myc-tag from vector pETbac) VHH: QVQLVESGGGVVQPGGSLRLSCAASDSISSLVNMGWYRQAPGKQRELVALIANYITHYADFVKGRFTISRDNSKNTLYLQMNSLRAEDTAVYYCYARNIIVDYWGQGTLVTVSS	M⁻¹ s⁻¹	450000
AP17R1-2H2-Z1-R1-29B6 (VHH, not shown: his- and c-Myc-tag from vector pETbac) VHH: QVQLVESGGGVVQPGGSLRLSCAASDSIDSLVNMGWYRQAPGKQRELVALIANYITHYADFVKGRFTISRDNSKNTLYLQMNSLRAEDTAVYYCYARNIYVDYWGQGTLVTVSS	M⁻¹ s⁻¹	425000
AP17R1-2H2-Z1-R1-30D3 (VHH, not shown: his- and c-Myc-tag from vector pETbac) VHH: QVQLVESGGGVVQPGGSLRLSCAASDSIDSLVNMGWYRQAPGKQRELVALIANYITHYADFVKGRFTISRDNSKNTLYLQMNSLRAEDTAVYYCYARNIIEDYWGQGTLVTVSS	M⁻¹ s⁻¹	416000
AP17R1-2H2-Z1-R1-6E1 (VHH, not shown: his- and c-Myc-tag from vector pETbac) VHH: QVQLVESGGGVVQPGGSLRLSCAASDSIDSMVNMGWYRQAPGKQRELVALIANYITHYADFVKGRFTISRDNSKNTLYLQMNSLRAEDTAVYYCYARNIIVDYWGQGTLVTVSS	M⁻¹ s⁻¹	439000
AP17R1-2H2-Z1-R1-14F3 (VHH, not shown: his- and c-Myc-tag from vector pETbac) VHH: QVQLVESGGGVVQPGGSLRLSCAASDSIDSLVNMGWYRQAPGKQRELVALIAWYITHYADFVKGRFTISRDNSKNTLYLQMNSLRAEDTAVYYCYARNIIVDYWGQGTLVTVSS	M⁻¹ s⁻¹	465000
AP17R1-2H2-Z1-R1-14A1 (VHH, not shown: his- and c-Myc-tag from vector pETbac) VHH: QVQLVESGGGVVQPGGSLRLSCAASDSIDSLVNMGWYRQAPGKQRELVALIATYITHYADFVKGRFTISRDNSKNTLYLQMNSLRAEDTAVYYCYARNIIVDYWGQGTLVTVSS	M⁻¹ s⁻¹	543000
